Biological target: HIV-RT (Human immunodeficiency virus type 1 group M subtype B, UniProt P04585)
Construct: 1 unit/mL of HIV-RT (Worthington Biochemical Corp., Freehold, N.J.); purchased Worthington Biochemical Corp., Freehold, N.J
Experiment: Checkerboard combination of lavendamycin analogs with AZT-triphosphate in HIV-RT enzyme assay (Chou and Talalay)
Format: biochemical
Settings: analogue 1.5 μM + AZT 0.007 μM, Trial 1
Criterion: Combination index strictly under 1. Met: Condition met. Not met: Condition not met.

Completed entries (count: 3):
- CC(=O)NC1=CC(=O)c2ccc(-c3nc(C(=O)OCCOP(=O)(O)O)cc4c3[nH]c3ccccc34)nc2C1=O: Condition met
- COC(=O)c1nc(-c2ccc3c(n2)C(=O)C(NC(C)=O)=CC3=O)c2[nH]c3ccccc3c2c1C: Condition not met
- CCCCOC(=O)c1cc2c([nH]c3ccccc32)c(-c2ccc3c(n2)C(=O)C(NC(=O)CCC)=CC3=O)n1: Condition not met

Q: Record `CCCCCCCCOC(=O)c1cc2c([nH]c3ccccc32)c(-c2ccc3c(n2)C(=O)C(N)=CC3=O)n1` : is its Combination index strictly below 1?
Ans: Condition met

Q: Find out if reported Combination index for CC(=O)NC1=CC(=O)c2ccc(-c3nc(C(N)=O)cc4c3[nH]c3ccccc34)nc2C1=O [Compound 16, 7-N-Acetyldemethyllavendamycin Amide] is less than 1
Ans: Condition met

----------
Target: HIV-RT (Human immunodeficiency virus type 1 group M subtype B, UniProt P04585)
Construct: 1 unit/mL of HIV-RT (Worthington Biochemical Corp., Freehold, N.J.); purchased Worthington Biochemical Corp., Freehold, N.J
Assay: Checkerboard combination of lavendamycin analogs with AZT-triphosphate in HIV-RT enzyme assay (Chou and Talalay)
Type: biochemical
Details: analogue 0.5 μM + AZT 0.01 μM, Trial 1
From the text: […] The assay procedure described below is adapted from Okada et al. (Okada, H.; Mukai, H.; Inouye, Y; Nakamura, S. “Biological Properties of Streptonigrin Derivatives II. Inhibition of Reverse Transcriptase Activity,” J. Antibiot., 1986, 39, 306-308). […] For each assay, the reaction mixture containing 8× buffer, double distilled H2O, ^3HTTP, template-primer and HIV-RT was pre-mixed in a 15-mL sterile tube in quantities required for the particular experiment. […]
Each entry below carries its reported Combination index.

Field: example entries. Status: answers known.
• CC(=O)NC1=CC(=O)c2ccc(-c3nc(C(N)=O)cc4c3[nH]c3ccccc34)nc2C1=O [Compound 16, 7-N-Acetyldemethyllavendamycin Amide] = 0.87
• CCCCOC(=O)c1cc2c([nH]c3ccccc32)c(-c2ccc3c(n2)C(=O)C(NC(=O)CCC)=CC3=O)n1 = 0.76
• CCCCCCCCOC(=O)c1cc2c([nH]c3ccccc32)c(-c2ccc3c(n2)C(=O)C(N)=CC3=O)n1 = 0.60

Q: Name the recorded Combination index of the item `COC(=O)c1nc(-c2ccc3c(n2)C(=O)C(NC(C)=O)=CC3=O)c2[nH]c3ccccc3c2c1C` in your answer.
Ans: 0.84

Q: Indicate the recorded Combination index value for this compound: `CC(=O)NC1=CC(=O)c2ccc(-c3nc(C(=O)O)cc4c3[nH]c3ccccc34)nc2C1=O`
Ans: 0.51

----------
Assay: Cytotoxicity assay (MTT), human lymphocytic cell lines, pooled data
Type: cell-based
Conditions: human lymphocytic cell lines CCRF-CEM and H-9, pooled data, H-9 and CEM inhibited by 50%, read-out: Mean CC50 (Human Cell Lines) ± SEM (no. of expts)
molecules and their reported CC50 at 48 h
Please reply with the bare figure in µM and do not write the unit itself.

Q: Input `CC(=O)NC1=CC(=O)c2ccc(-c3nc(C(=O)OCCOP(=O)(O)O)cc4c3[nH]c3ccccc34)nc2C1=O` , output reported CC50 at 48 h.
Ans: 27

Q: Assign CC50 at 48 h to the following record: NC(=O)c1cc2c([nH]c3ccccc32)c(-c2ccc3c(n2)C(=O)C(N)=CC3=O)n1 [Compound 21, Demethyllavendamycin Amide]
Ans: 17

Q: Give the reported CC50 at 48 h for this molecule. `COC(=O)c1nc(-c2ccc3c(n2)C(=O)C(NC(C)=O)=CC3=O)c2[nH]c3ccccc3c2c1C`
Ans: 31

Q: Using known records, supply CC50 at 48 h for CC(=O)NC1=CC(=O)c2ccc(-c3nc(C(N)=O)cc4c3[nH]c3ccccc34)nc2C1=O [Compound 16, 7-N-Acetyldemethyllavendamycin Amide]
Ans: 95

Q: Please report the measured CC50 at 48 h for `CC(=O)NC1=CC(=O)c2ccc(-c3nc(C(=O)O)cc4c3[nH]c3ccccc34)nc2C1=O`
Ans: 81
